# TARGET_UNDER_TEST: rat VAP-1 enzyme (SSAO) (Rattus norvegicus, UniProt O08590)
# Construct: made in house; cell extract used
# Sequence (O08590 whole entry): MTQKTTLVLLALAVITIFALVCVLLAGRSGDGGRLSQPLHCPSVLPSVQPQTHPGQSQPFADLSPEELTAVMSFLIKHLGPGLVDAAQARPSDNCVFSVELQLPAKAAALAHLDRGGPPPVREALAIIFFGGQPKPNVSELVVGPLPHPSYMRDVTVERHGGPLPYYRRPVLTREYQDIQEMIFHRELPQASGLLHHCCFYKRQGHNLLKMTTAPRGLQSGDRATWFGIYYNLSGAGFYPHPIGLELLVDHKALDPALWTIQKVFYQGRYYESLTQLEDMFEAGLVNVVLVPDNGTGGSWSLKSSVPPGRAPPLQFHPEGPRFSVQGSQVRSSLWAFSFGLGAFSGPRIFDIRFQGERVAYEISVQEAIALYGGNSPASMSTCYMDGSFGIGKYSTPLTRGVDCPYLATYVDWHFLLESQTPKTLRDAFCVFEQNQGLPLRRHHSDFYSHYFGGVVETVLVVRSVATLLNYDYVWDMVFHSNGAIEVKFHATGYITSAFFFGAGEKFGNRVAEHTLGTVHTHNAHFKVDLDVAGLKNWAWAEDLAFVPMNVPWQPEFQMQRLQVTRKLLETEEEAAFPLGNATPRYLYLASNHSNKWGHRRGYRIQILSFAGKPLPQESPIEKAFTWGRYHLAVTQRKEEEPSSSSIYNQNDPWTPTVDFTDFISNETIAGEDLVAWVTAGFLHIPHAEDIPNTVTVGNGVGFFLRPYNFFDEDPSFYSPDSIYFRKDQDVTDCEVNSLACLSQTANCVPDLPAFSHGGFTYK
# PROCEDURE_DETAILS: Enzyme activity inhibitory effect on rat VAP-1 enzyme (SSAO), radiochemical-enzyme assay with 14C-benzylamine
# Type: biochemical
# CONDITION_LABEL: rat VAP-1 (SSAO) cell extract, 14C-benzylamine 1×10^−5 mol/l, 37° C. 2 hours
Where a name gives a salt, the structure may show the parent alone.
OBSERVABLE: IC50 (nM)
One number for each entry, in nM.

**Q:** Hi! What's the reported IC50 for CC(=O)Nc1nc(C(=O)Nc2ccc(CCOC(=O)NN)cc2)cs1.Cl [Production Example 9, hydrochloride] on rat VAP-1 enzyme (SSAO) (Rattus norvegicus, UniProt O08590)?
**A:** 1

Provide reported IC50 for each item, in the same order as listed.
1. CC(=O)Nc1nc(CCc2ccc(CCNC(=O)NN)cc2)cs1.Cl [Production Example 19, hydrochloride]
2. CC(=O)Nc1nc(CCc2ccc(COC(=O)NN)cc2F)cs1.Cl [Production Example 5, hydrochloride]
3. CC(=O)Nc1nc(CCc2ccc(CNC(=O)NN)s2)cs1.Cl [Production Example 29, hydrochloride]
4. CC(=O)Nc1nc(CCc2cccc(COC(=O)NN)c2)cs1.Cl [Production Example 11, hydrochloride]
5. CC(=O)Nc1nc(CCc2cc(CCCOC(=O)NN)cs2)cs1.Cl [Production Example 16, hydrochloride]
6. CC(=O)Nc1nc(CCc2cc(C)c(CCCOC(=O)NN)s2)cs1.Cl [Production Example 17, hydrochloride]
7. CC(=O)Nc1nc(CCc2cc(C)c(CCCNC(=O)NN)s2)cs1.Cl [Production Example 33, hydrochloride]

**A:**
1. 2.3
2. 1.1
3. 0.6
4. 0.2
5. 10.5
6. 5
7. 2.1

**Q:** Hi! What's the reported IC50 for CC(=O)Nc1nc(CCc2ccc(CNC(=O)NN)c(F)c2F)cs1 [Production Example 22, hydrochloride] on rat VAP-1 enzyme (SSAO) (Rattus norvegicus, UniProt O08590)?
**A:** 2.2
